molecular target: human PDE2A1 (Homo sapiens, UniProt O00408); construct: GST; purchased BPS Bioscience (San Diego, Calif.) 60020; host or cells: insect cells; assay: IMAP FP PDE selectivity panel, human PDE2A1; assay type: biochemical; settings: Lab B; read-out: Human PDE2 Ki (nM) Lab B
Sequence (O00408 1-920 isoform O00408-2): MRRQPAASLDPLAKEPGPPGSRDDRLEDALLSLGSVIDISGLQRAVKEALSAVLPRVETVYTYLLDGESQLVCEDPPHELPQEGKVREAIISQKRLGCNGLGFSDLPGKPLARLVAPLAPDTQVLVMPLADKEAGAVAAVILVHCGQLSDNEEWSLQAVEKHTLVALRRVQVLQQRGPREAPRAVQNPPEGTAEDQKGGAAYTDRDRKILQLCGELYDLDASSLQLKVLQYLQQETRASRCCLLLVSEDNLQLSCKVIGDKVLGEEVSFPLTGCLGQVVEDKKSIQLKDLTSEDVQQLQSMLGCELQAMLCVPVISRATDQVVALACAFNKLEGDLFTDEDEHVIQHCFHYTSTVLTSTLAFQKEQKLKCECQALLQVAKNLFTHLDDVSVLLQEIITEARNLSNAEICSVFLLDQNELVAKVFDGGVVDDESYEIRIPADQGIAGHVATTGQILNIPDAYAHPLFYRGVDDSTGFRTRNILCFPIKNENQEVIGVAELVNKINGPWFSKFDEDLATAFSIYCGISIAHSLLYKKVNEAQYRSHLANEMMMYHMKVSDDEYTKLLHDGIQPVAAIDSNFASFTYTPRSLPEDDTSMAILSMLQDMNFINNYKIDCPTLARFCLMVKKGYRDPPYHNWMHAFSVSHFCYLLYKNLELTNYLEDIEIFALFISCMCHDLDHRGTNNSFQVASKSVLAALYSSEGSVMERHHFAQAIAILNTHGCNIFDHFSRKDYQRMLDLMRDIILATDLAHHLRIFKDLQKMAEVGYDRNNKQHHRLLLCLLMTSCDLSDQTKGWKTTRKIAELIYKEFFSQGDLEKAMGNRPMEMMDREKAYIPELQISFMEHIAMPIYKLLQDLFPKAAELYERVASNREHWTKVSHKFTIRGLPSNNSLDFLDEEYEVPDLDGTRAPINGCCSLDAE
attribute measured: Ki (nM)

Past entries and their recorded results:
molecule	Ki (nM)
Cc1cc(N[C@@H](c2ccc(C(F)(F)F)c(F)c2)C(C)(C)C)n2nc(C(F)F)nc2n1	74
Cc1cc(N[C@@H](c2ccc(C(F)(F)F)cc2)C(C)(C)C)n2ncnc2n1	11
Cc1cc(NC(C)(C)c2ccc(OC(F)(F)F)c(F)c2)n2ncnc2n1	207
CC(C)(O)C(Nc1cc(C(F)(F)F)nc2ncnn12)c1ccc(OC(F)(F)F)cc1F (single isomer, unassigned) [Example 172]	25

P. Cc1cc(N[C@@H](c2ccc(C(F)(F)F)c(F)c2)C(C)(C)C)n2ncnc2n1
Q. Cc1cc(N[C@@H](c2ccc(C(F)(F)F)c(F)c2)C(C)(C)C)n2nc(CCO)nc2n1
Q: Kindly compare P with Q and tell me which has the lower Ki figure. State your choice using its label.
Result: P
(P: 10 nM, Q: 57 nM)
